Below: a set of entries, each annotated with reported pIC50.
# System Tested: Phosphatidylinositol 4,5-bisphosphate 3-kinase catalytic subunit beta isoform (Homo sapiens, UniProt P42338)
# Sequence (P42338 whole entry, canonical isoform): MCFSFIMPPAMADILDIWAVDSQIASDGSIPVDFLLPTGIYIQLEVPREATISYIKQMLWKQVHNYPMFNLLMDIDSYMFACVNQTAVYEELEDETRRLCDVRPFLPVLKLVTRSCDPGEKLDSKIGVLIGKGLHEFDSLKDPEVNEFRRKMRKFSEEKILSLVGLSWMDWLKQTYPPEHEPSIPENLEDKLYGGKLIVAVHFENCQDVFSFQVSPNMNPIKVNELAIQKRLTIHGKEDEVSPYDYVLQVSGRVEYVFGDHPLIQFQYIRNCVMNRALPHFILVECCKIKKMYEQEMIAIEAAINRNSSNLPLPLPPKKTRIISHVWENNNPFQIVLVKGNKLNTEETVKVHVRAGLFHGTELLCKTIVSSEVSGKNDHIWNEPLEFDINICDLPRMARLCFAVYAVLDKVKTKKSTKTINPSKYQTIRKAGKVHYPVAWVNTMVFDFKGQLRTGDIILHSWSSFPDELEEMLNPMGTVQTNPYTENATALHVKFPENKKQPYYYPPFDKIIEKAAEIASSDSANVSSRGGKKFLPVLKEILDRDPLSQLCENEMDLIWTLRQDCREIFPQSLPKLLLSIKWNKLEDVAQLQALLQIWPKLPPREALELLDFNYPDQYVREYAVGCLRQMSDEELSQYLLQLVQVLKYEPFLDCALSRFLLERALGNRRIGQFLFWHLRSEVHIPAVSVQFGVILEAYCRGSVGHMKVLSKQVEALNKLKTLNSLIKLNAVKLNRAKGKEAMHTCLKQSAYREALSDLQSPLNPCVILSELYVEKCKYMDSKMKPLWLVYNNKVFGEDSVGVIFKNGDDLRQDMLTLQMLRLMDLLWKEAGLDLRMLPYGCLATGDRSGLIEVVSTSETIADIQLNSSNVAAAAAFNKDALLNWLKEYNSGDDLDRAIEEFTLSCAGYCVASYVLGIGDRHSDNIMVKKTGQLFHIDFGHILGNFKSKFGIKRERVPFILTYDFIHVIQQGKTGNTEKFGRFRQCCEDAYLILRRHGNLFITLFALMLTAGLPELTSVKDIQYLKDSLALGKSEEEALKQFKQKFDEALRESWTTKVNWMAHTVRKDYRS
# Assay Procedure: Inhibition of PI3K-beta (unknown origin) by KinaseGlo assay
Reminder that pIC50 is minus the log10 of a molar concentration.

Worked examples, 7 compounds total:
[
  {
    "Compound Structure": "CCC(=O)N1CC[C@H](Oc2ccnc3ccc(-c4ccc(OC)nc4)cc23)C1",
    "pIC50": 6.18
  },
  {
    "Compound Structure": "CCC(=O)N1CC[C@H](Oc2ccnc3ccc(-c4ccc(OC)nc4)nc23)C1",
    "pIC50": 5.99
  },
  {
    "Compound Structure": "CCC(=O)N1CC[C@H](Oc2cnnc3ccc(-c4ccc(OC)nc4)cc23)C1",
    "pIC50": 5.05
  },
  {
    "Compound Structure": "CCC(=O)N1CC[C@H](Oc2ncnc3ccc(-c4ccc(OC)nc4)cc23)C1",
    "pIC50": 6.17
  },
  {
    "Compound Structure": "COc1ccc(-c2ccc3ncnc(O[C@H]4CCN(C)C4)c3c2)cc1OC",
    "pIC50": 5.83
  },
  {
    "Compound Structure": "COc1ccc(-c2ccc3ncnc(O[C@H]4CCN(C(=O)OC(C)(C)C)C4)c3c2)cc1OC",
    "pIC50": 6.02
  },
  {
    "Compound Structure": "COc1ccc(-c2ccc3ncnc(O[C@@H]4CCN(C)C4)c3c2)cc1OC",
    "pIC50": 5.71
  }
]

Input: Would you mind telling me what pIC50 value was observed for CCC(=O)N1CC[C@H](Oc2ncnc3ccc(-c4cnc(OC)c(C#N)c4)cc23)C1 ?
Output: 6.44

----------
# System Tested: Phosphatidylinositol 4,5-bisphosphate 3-kinase catalytic subunit delta isoform (Homo sapiens, UniProt O00329)
# Assay Procedure: Inhibition of myristoylated PI3K-delta (unknown origin) overexpressed in Rat1 cells assessed as inhibition of Akt phosphorylation
# Assay type: cell-based
pIC50: −log10 of the molar value.
Classify as follows. Reported pIC50 greater than or equal to 7: class 1. Reported pIC50 below: class 0.

[
  {
    "Compound Structure": "CCC(=O)N1CC[C@H](Oc2ncnc3ccc(-c4ccc(OC)nc4)cc23)C1",
    "Discrete Label": "class 1"
  }
]

Input: Textbook exercise: given the entry COc1ccc(-c2ccc3ncnc(O[C@H]4CCN(C(=O)OC(C)(C)C)C4)c3c2)cc1OC , state whether its pIC50 is greater than or equal to 7.
Output: class 1

Input: Please do the same for CCC(=O)N1CC[C@H](Oc2cnnc3ccc(-c4ccc(OC)nc4)cc23)C1 as well.
Output: class 0

Input: What do we get for CCC(=O)N1CC[C@H](Oc2ccnc3ccc(-c4ccc(OC)nc4)nc23)C1 ?
Output: class 0

----------
Quick reference for pIC50 among some compounds
# System Tested: Phosphatidylinositol 4,5-bisphosphate 3-kinase catalytic subunit delta isoform (Homo sapiens)
# Sequence (O00329 whole entry): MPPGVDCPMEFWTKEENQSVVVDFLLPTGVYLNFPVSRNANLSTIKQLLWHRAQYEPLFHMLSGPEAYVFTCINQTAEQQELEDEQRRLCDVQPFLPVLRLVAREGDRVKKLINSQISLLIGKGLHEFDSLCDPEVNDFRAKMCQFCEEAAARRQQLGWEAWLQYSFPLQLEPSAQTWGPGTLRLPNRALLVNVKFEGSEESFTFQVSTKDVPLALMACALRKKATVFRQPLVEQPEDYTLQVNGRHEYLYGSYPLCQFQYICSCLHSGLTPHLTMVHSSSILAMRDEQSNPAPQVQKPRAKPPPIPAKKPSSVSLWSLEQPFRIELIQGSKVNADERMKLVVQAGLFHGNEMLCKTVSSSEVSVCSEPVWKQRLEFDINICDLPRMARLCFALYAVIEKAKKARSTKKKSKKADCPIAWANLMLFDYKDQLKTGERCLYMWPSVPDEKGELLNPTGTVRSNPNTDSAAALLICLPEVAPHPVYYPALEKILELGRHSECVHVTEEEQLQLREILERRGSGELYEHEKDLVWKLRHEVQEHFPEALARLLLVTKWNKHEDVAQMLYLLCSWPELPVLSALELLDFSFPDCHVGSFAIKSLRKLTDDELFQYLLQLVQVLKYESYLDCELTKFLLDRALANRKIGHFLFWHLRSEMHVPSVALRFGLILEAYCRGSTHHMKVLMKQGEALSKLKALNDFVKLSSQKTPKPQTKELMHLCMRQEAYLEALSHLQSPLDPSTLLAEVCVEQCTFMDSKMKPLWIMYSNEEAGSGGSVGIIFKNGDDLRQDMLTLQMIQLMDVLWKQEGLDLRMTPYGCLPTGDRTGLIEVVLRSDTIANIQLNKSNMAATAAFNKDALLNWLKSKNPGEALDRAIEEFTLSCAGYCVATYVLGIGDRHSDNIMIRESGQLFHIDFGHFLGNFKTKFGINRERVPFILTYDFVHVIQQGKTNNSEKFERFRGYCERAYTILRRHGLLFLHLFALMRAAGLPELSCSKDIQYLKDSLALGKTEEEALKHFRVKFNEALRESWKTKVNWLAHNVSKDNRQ
# Assay Procedure: Inhibition of PI3K-delta (unknown origin) by KinaseGlo assay
Please treat pIC50 as minus the base-10 logarithm of the molar concentration.

Would you please look over these solved cases?
[
  {
    "Compound Structure": "COc1ccc(-c2ccc3ncnc(O[C@@H]4CCN(C(=O)OC(C)(C)C)C4)c3c2)cc1OC",
    "pIC50": 6.59
  },
  {
    "Compound Structure": "COc1ccc(-c2ccc3ncnc(O[C@H]4CCN(C)C4)c3c2)cc1OC",
    "pIC50": 6.89
  },
  {
    "Compound Structure": "CCC(=O)N1CC[C@H](Oc2cnc3ccc(-c4ccc(OC)c(OC)c4)cc3n2)C1",
    "pIC50": 6.31
  },
  {
    "Compound Structure": "CCC(=O)N1CC[C@H](Oc2ncnc3ccc(-c4ccc(OC)nc4)cc23)C1",
    "pIC50": 8.05
  },
  {
    "Compound Structure": "COc1ccc(-c2ccc3ncnc(O[C@@H]4CCN(C)C4)c3c2)cc1OC",
    "pIC50": 6.96
  }
]

Input: # lookup: pIC50 of COc1ccc(-c2ccc3ncnc(O[C@H]4CCN(C(=O)OC(C)(C)C)C4)c3c2)cc1OC
Output: 8.00

Input: Continue with COc1ccc(-c2ccc3ncnc(O[C@@H]4CCN(C(C)=O)C4)c3c2)cc1OC
Output: 6.84

Input: Another: CCC(=O)N1CC[C@H](Oc2ncnc3ccc(-c4cnc(OC)c(C#N)c4)cc23)C1
Output: 8.30

Input: Same for CCC(=O)N1CC[C@H](Oc2ccnc3ccc(-c4ccc(OC)nc4)nc23)C1
Output: 7.66

Input: Then this compound: CCC(=O)N1CC[C@H](Oc2cnnc3ccc(-c4ccc(OC)nc4)cc23)C1
Output: 6.73

----------
# System Tested: Phosphatidylinositol 4,5-bisphosphate 3-kinase catalytic subunit beta isoform (Homo sapiens, UniProt P42338)
# Assay Procedure: Inhibition of myristoylated PI3K-beta (unknown origin) overexpressed in Rat1 cells assessed as inhibition of Akt phosphorylation
# Assay type: cell-based
Each entry below carries its reported IC50.
API: value field is a number in µM; no unit string.

Sample answers from the record:
[
  {
    "Compound Structure": "COc1ccc(-c2ccc3ncnc(O[C@H]4CCN(C(=O)OC(C)(C)C)C4)c3c2)cc1OC",
    "Recorded Number": 1.52
  },
  {
    "Compound Structure": "CCC(=O)N1CC[C@H](Oc2ncnc3ccc(-c4cnc(OC)c(C#N)c4)cc23)C1",
    "Recorded Number": 1.28
  }
]

Input: Returns the measured IC50 for the input molecule. Input: CCC(=O)N1CC[C@H](Oc2ccnc3ccc(-c4ccc(OC)nc4)nc23)C1
Output: 3.21

Input: Try the molecule CCC(=O)N1CC[C@H](Oc2ncnc3ccc(-c4ccc(OC)nc4)cc23)C1
Output: 1.78

Input: // next record CCC(=O)N1CC[C@H](Oc2ccnc3ccc(-c4ccc(OC)nc4)cc23)C1
Output: 0.877

Input: Also COc1ccc(-c2ccc3ncnc(O[C@H]4CCN(C(C)=O)C4)c3c2)cc1OC ?
Output: 0.407

Input: Continue with CCC(=O)N1CC[C@@H](Oc2cnc3ccc(-c4ccc(OC)c(OC)c4)cc3n2)C1
Output: 2.13

----------
# Assay Procedure: Lipophilicity, log P of the compound by high-throughput assay
# Type: physicochemical
# Condition Set: octanol/water
Rule: logP below 4 gives MET, anything at or above gives NOT MET.

Input: Lab note: logP threshold 4. Does this compound come in strictly under it? COc1ccc(-c2ccc3ncnc(O[C@@H]4CCN(C)C4)c3c2)cc1OC
Output: MET

Input: Then CCC(=O)N1CC[C@@H](Oc2cnc3ccc(-c4ccc(OC)c(OC)c4)cc3n2)C1 ?
Output: MET

Input: Further, for CCC(=O)N1CC[C@H](Oc2ccnc3ccc(-c4ccc(OC)nc4)cc23)C1 ?
Output: MET

Input: Next entry: CCC(=O)N1CC[C@H](Oc2ccnc3ccc(-c4ccc(OC)nc4)nc23)C1
Output: MET

Input: Same read-out for COc1ccc(-c2ccc3ncnc(O[C@@H]4CCN(C(C)=O)C4)c3c2)cc1OC ?
Output: MET

Input: Field entry: CCC(=O)N1CC[C@H](Oc2cnnc3ccc(-c4ccc(OC)nc4)cc23)C1
Output: MET

Input: Try this compound next: COc1ccc(-c2ccc3ncnc(O[C@@H]4CCN(C(=O)OC(C)(C)C)C4)c3c2)cc1OC
Output: NOT MET

Input: Follow-up item: COc1ccc(-c2ccc3ncnc(O[C@H]4CCN(C)C4)c3c2)cc1OC
Output: MET

Input: Next compound: CCC(=O)N1CC[C@H](Oc2ncnc3ccc(-c4cnc(OC)c(C#N)c4)cc23)C1
Output: MET

Input: Can you handle CCC(=O)N1CC[C@H](Oc2cnc3ccc(-c4ccc(OC)c(OC)c4)cc3n2)C1 next?
Output: MET

Input: Can you handle CCC(=O)N1CC[C@H](Oc2ncnc3ccc(-c4ccc(OC)nc4)cc23)C1 next?
Output: MET

Input: Entry to check: COc1ccc(-c2ccc3ncnc(O[C@H]4CCN(C(C)=O)C4)c3c2)cc1OC
Output: MET

Input: Input COc1ccc(-c2ccc3ncnc(O[C@H]4CCN(C(=O)OC(C)(C)C)C4)c3c2)cc1OC
Output: NOT MET
